Cited source for all entries: paper PMC9408872

Tested on: Hek293T (embryonic kidney cells)
experiment.notes: MTT cytotoxicity assay, Hek293T
Format: cell-based, human
measurement.context: Homo sapiens, HEK-293T; noncancer cell line; 72 h, MTT; mean ± SD; read-out: IC50 Hek293T
endpoint: pIC50
One number for each entry, as −log10 of the molar value.

Lookup: Could you share which pIC50 value was measured for O=c1[nH]cc(F)c(=O)[nH]1 [Compound 5-FU, 5-fluorouracil, reference compound] ?
Found: 5.09

----------
System: MCF-7 (breast adenocarcinoma)
experiment.notes: cells
measurement.context: Homo sapiens, MCF7, 72 h, read-out: IC50 MCF-7
So I've got a bunch of molecules here, and I need their pIC50 values.
Answers are plain numbers, as −log10 of the molar value.

COc1ccc2c(c1)[nH]c1c(C)nccc12 = 4.87

Lookup: Value wanted: pIC50 (MCF-7 (breast adenocarcinoma)) of entry O=c1[nH]cc(F)c(=O)[nH]1 [Compound 5-FU, 5-fluorouracil, reference compound]
Found: 4.62
